assay: absolute recovery over mixed-bed multilayer solid-phase extraction; higher = better recovery; conditions: surface water; enrichment method: SPE
value_kind: absolute recovery
In your response, put the unit directly after the numeric value.

Here is how some compounds turned out for absolute recovery.
CON=C(C(=O)OC)c1ccccc1COc1ccccc1C [Kresoxim-methyl] | 110%
Nc1ncnc2c1ncn2C1OC(CO)C(O)C1O (stereo not given) [Adenosine] | 69.4%
COC=C(C(=O)[O-])c1ccccc1Oc1cc(Oc2ccccc2C#N)ncn1 [Azoxystrobin-acid] | 92.6%
Nc1[nH]c2ccccc2[nH+]1 [2-Aminobenzimidazol] | 90.3%

Turning to the following compound.
CCCC1COC(Cn2cncn2)(c2ccc(Cl)cc2Cl)O1 (stereo not given) [Propiconazol] has a reported absolute recovery of 94.8%

---

In this section we review reported absolute recovery values for a set of compounds.
assay: absolute recovery over mixed-bed multilayer solid-phase extraction; higher = better recovery; conditions: wastewater influent; enrichment method: SPE
In your response, put the unit directly after the numeric value.

Here is how some compounds turned out for absolute recovery.
COCCN(C(=O)C(=O)[O-])c1c(C)cccc1C | 87.9%
CC([NH3+])Cc1ccccc1 (stereo unspecified) | 91.8%
CC(=O)Nc1ccc(S(=O)(=O)[N-]c2nc(C)cc(C)n2)cc1 | 93.2%
COCCN(C(=O)CS(=O)(=O)[O-])c1c(C)cccc1C | 84.4%
c1ccc(C2CN3CCSC3=[NH+]2)cc1 (stereo unspecified) | 82%

`Nc1[nH]c2ccccc2[nH+]1` has a reported absolute recovery of 92%

`CC(C)N(C(=O)C(=O)[O-])c1ccc(F)cc1` has a reported absolute recovery of 92.4%

CC1(C)SC(CNC(=O)C([NH3+])c2ccc(O)cc2)[NH2+]C1C(=O)[O-] (stereo unspecified) has a reported absolute recovery of 30.7%

---

experiment: LC retention time (Atlantis T3, 5-95% MeOH gradient, 0.1% formic acid); higher = more retained / less polar
In this section we review reported LC retention time values for a set of molecules.
Dear colleague, please return just the value in min, with no unit written.

COc1nc(C)nc(NC(=O)[N-]S(=O)(=O)c2ccccc2CCC(F)(F)F)n1 [Prosulfuron] | 19.3

CC(C)C([NH3+])C(=O)OCC(CO)OCn1cnc2c(=O)[nH+]c(N)[nH]c21 (stereo not given) [Valganciclovir] has a reported LC retention time of 7.61

CNC(=O)CSP(=S)(OC)OC [Dimethoat] has a reported LC retention time of 14.4

CC(C)(Oc1ccc(C(=O)c2ccc(Cl)cc2)cc1)C(=O)[O-] [Fenofibric-acid] has a reported LC retention time of 20.8

COc1ccc(C(C[NH+](C)C)C2(O)CCCCC2)cc1 (stereo not given) [Venlafaxin] has a reported LC retention time of 14

O=[N+]([O-])C(Br)(CO)CO [Bronopol] has a reported LC retention time of 9.24

COc1ccc(C(C[NH3+])C2(O)CCCCC2)cc1 (stereo not given) [N-N-Didesvenlafaxin] has a reported LC retention time of 14.1

C[NH+]=C([N-][N+](=O)[O-])NCc1cnc(Cl)s1 [Clothianidin] has a reported LC retention time of 13.8

Nc1ccc2c(S(=O)(=O)[O-])cccc2c1S(=O)(=O)[O-] [2-amino-1-5-napthalenedisulfonic-acid] has a reported LC retention time of 4.35

CCCN(CCOc1c(Cl)cc(Cl)cc1Cl)C(=O)n1ccnc1 [Prochloraz] has a reported LC retention time of 20.6

O=C([O-])C[NH+](CCC[NH+](CC(=O)[O-])CC(=O)[O-])CC(=O)[O-] [1-3-Propylene-diaminotetraacetic-acid] has a reported LC retention time of 3.58
